TEST_SYSTEM: Human IP6K1 (Homo sapiens, UniProt Q92551)
Construct: GST (N, cleaved yes); made in house; host or cells: C43 E. coli, pGEX-6P-2
Sequence (Q92551 whole entry): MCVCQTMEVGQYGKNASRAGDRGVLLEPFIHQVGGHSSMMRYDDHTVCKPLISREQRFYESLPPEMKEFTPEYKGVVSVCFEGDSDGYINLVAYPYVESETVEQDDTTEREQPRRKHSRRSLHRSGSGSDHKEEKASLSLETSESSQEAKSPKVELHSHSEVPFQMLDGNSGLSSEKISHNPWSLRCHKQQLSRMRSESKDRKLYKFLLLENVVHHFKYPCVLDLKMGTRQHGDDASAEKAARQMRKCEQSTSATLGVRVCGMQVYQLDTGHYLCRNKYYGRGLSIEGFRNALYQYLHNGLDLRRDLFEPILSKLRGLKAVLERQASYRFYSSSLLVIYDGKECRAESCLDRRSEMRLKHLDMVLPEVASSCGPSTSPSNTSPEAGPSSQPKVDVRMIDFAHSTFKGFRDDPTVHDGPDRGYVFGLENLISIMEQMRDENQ
MEASUREMENT_NOTES: IP6K1 high-throughput screen of the Sigma LOPAC (ADP-Glo Max, single point);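 further: final compound concentration 10µM in 5% DMSO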
Type: biochemical
CONDITION: LOPAC single-point screen, ADP-Glo Max raw signal per well
Where a name gives a salt, the structure may show the parent alone.
I'd appreciate it if you could supply Raw Signal values for the items below.
Form rule: numeric answer, no unit written next to it.

Dear colleague, I am looking for the recorded Raw Signal of the following molecule: `COC(=O)c1c(C)[nH]c(C)c1C(=O)c1ccccc1Cc1ccccc1` 56544

Dear colleague, I am looking for the recorded Raw Signal of the following molecule: CC(C)[C@@H]1NC(=O)[C@H](CCCCN)NC(=O)[C@@H](Cc2c[nH]c3ccccc23)NC(=O)[C@H](Cc2ccc(O)cc2)NC(=O)[C@H](C)N(C)C(=O)[C@H](Cc2ccccc2)NC1=O [Seglitide] 55030

Dear colleague, I am looking for the recorded Raw Signal of the following molecule: `C[C@]12C[C@H](O)[C@H]3[C@@H](CCC4=CC(=O)CC[C@@]43C)[C@@H]1CC[C@@H]2C(=O)CO` 55741

Dear colleague, I am looking for the recorded Raw Signal of the following molecule: CC[C@H]1CN2CCc3cc(OC)c(OC)cc3[C@@H]2C[C@@H]1C[C@H]1NCCc2cc(OC)c(OC)cc21 [Emetine dihydrochloride hydrate] 52998

Dear colleague, I am looking for the recorded Raw Signal of the following molecule: `CC(C)c1ccc2c(c1)c(SC(C)(C)C)c(CC(C)(C)C(=O)O)n2Cc1ccc(Cl)cc1` 53257

Dear colleague, I am looking for the recorded Raw Signal of the following molecule: `CC[C@H](CO)Nc1nc(NCc2ccccc2)c2ncn(C(C)C)c2n1` 54754

Dear colleague, I am looking for the recorded Raw Signal of the following molecule: `Oc1ccc(/C=C/c2cc(O)cc(O)c2)cc1` 54146
